Biological target: T1, extracellular domain of activin receptor type IIB (ActRIIBecd), biotinylated (Homo sapiens (Human), UniProt Q13705 27-117, amino-biotinylated with amine-PEG3-Biotin)
T1 construct: immobilised on a streptavidin-coated sensor chip; also called biotinylated ActRIIBecd; extracellular domain of ActRIIB
T1 sequence: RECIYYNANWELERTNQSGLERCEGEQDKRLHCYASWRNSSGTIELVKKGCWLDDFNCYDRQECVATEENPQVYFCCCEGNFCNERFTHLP
Assay: BIAcore SPR as Example 5 (method not restated); SD ±1.63 nM
Procedure: Biosensor experiments. In one embodiment, experiments were performed on a BIAcore™ T100/T200 instrument (Pharmacia Biosensor AB) in the multichannel mode (serial flow path involving flow cells 1+2+3+4). Flow rate was 10 μl/min; temperature was 25° C.; and data were recorded at 2.5 points/s. All four segments of a sensor chip CMS were coated with streptavidin (Sigma) to a density of 2000 pg/mm² (2000 resonance units) by the aminocoupling procedure. […]
Bridges are numbered along the chain shown (N, C = ends).
MEASUREMENT NAME: pKd
Notebook: values listed as pKd are -log10 of the concentration (mol/L).

• SEQ ID NO: 230, cysteine pairs C27-C65^a (designed binder, disulfides C27-C65 (intra)) VDFKDVGWNDHAVAPPGYHAFYCHGECPFPLADHLNSDNHAIVQTKVNSVGQAKRKGYKRLKSSCKRHPLY = 7.28

# binder SEQ ID NO: 242, cysteine pairs C15-C15^b, C29-C64^a, C30-C62^a (designed binder, disulfide 29-64, 30-62; also: homodimer via intermolecular C15-C15 disulfide, homodimer by intermolecular disulfide) GQAKRKGYKRLKSSCKRHPLYNSKDPKACCVPTELSAPSPLYLDENEKPVLKNYQDMVVHGCGCR ; its pKd = 7.74

FYI, the data here is from patent US20190071480A1.
